Tested on: NCI/ADR-RES
EXPERIMENT SUMMARY: NCI tumour cell line growth inhibition, 48 h
Calls of active or inactive are those of the source. Rule as the data show it: active = GI50 up to about 1.1 µM and inactive = higher.
Hi! Could you answer with just one of these? t = active, f = inactive

Examples with answers:
| COMPOUND | ASSIGNED LABEL |
| --- | --- |
| [O-][S+](Nc1ccccc1)c1cccc(Cl)c1 (stereo unspecified) | f |
| COC1=C(C)C(=O)C2=C(C1=O)C1C3CC4=C(C(=O)C(OC)=C(C)C4=O)C(CNC(=O)C(C)=O)N3C(C#N)C(C2)N1C (stereo unspecified) | t |
| COc1cc(S(=O)(=O)Nc2nc(-c3ccc(N4C(=O)CSC4c4cccs4)cc3)cs2)ccc1Cl (stereo unspecified) | f |

stdin: How was COc1ccc(CC2C3=C(CCN2C(=O)C2CCC2)CC2(CC3)OCCO2)cc1O (stereo unspecified) classified in this test?
stdout: f

stdin: How was `CCOC(=O)NN(C(=O)OCC)C(=C(C1=CCCCC1)N1CCOCC1)N(NC(=O)OCC)C(=O)OCC` classified in this test?
stdout: f

stdin: How was Nc1ncc2c(n1)-c1ccccc1OC2N1CCCC1 (stereo unspecified) classified in this test?
stdout: f

stdin: How was `O=C(O)c1cc(CCc2ccc(O)c(O)c2)ccc1O` classified in this test?
stdout: f

stdin: How was `NC1CCN(c2nc3ccccc3c3c2CCCC3)CC1` classified in this test?
stdout: f

stdin: How was CCOc1ccccc1/N=N/C1C(=O)N(C(=O)CC(=O)Nc2ccccc2C)N=C1C (stereo unspecified) classified in this test?
stdout: f

stdin: How was `Nc1ccc2c(c1)NC(=O)[C@@H]1CCCN1C2=O` classified in this test?
stdout: f

stdin: How was O=C1NC(N2CCCC(CO)C2)=N/C1=C\c1ccc(Cl)cc1 (stereo unspecified) classified in this test?
stdout: f

stdin: How was `CC(=O)N1c2ccccc2Sc2cc(C(O)(C(F)(F)F)C(F)(F)F)ccc21` classified in this test?
stdout: f

Reference for the values: ChEMBL document CHEMBL1201862
